# assay_target: HLA-A∗02:01 on T2 cells (Homo sapiens, UniProt P04439, D140Y/D185E/D98H/E176V/E277Q/G131W/G231S/I119V/I121R/I166T/I218V/L300P/L318F/N151K/N90K/P208A/P217A/Q86G/Q94H/R138H/R169H/T345S)
# Construct: measuring peptide-induced expression of HLA-A∗02:01 on T2 cells using flow cytometry; host or cells: T2 cells (human, TAP1/TAP2-deficient)
# assay_name: T2-cell-peptide binding test (peptide-induced HLA-A∗02:01 expression, flow cytometry)
# cond: peptide 20 μg/mL, 4 h in SFM, BB7.2 anti-HLA-A∗02:01 mAb, mean ± SE of three independent experiments, SEM
Recorded percentage of MFI increase of HLA-A∗02:01 for the following sequences
Report as a plain number; the unit % is understood.

Past entries and their recorded results:
{"columns": ["macromolecule_sequence", "unit_text", "observed_result"],
 "data": [
  ["LMLDRGIPV [HEATR1_757–765]", "%", 228.7],
  ["LLPESIPFL [HEATR1_2102–2110]", "%", 285.2],
  ["KLLRMLFDL [HEATR1_1126–1134]", "%", 287.2]
]}

Next:
Task: Quick check: percentage of MFI increase of HLA-A∗02:01 of KMVEDLISV [HEATR1_682–690] ?
Result: 308.5
